The origin of these recorded values is patent US7732443B2.

Tested on: laser-induced hypertensive monkeys
Assay: Intraocular pressure (IOP) in laser-induced hypertensive monkeys
Format: in vivo
reportedProperty: intraocular pressure (IOP) change from baseline

{"columns": ["compound", "result"],
 "data": [
  ["CCCCCC(O)c1ccc(C2C(O)CC(Cl)C2CC=CCCCC(=O)OCCO)cc1 (centres unmarked) [Compound 51a]", "decreases from baseline"],
  ["CCCCCCc1ccc(C2C(O)CC(Cl)C2CC=CCCCC(=O)OCCN2CCOCC2)cc1 (centres unmarked) [Compound 63b]", "decreases from baseline"],
  ["CCCCCCc1ccc(C2C(O)CC(Cl)C2CC=CCCCC(=O)OCCO)cc1 (centres unmarked) [Compound 63a]", "decreases from baseline"],
  ["CCCCCC(O)c1ccc(C2C(O)CC(Cl)C2CC=CCCCC(=O)OCCO)cc1 (centres unmarked) [Compound 68a]", "decreases from baseline"],
  ["CCCCCC(O)c1ccc(C2C(O)CC(Cl)C2CCCc2ncc(C(=O)OCCN3CCOCC3)s2)cc1 (centres unmarked) [Compound 34b]", "decreases from baseline"],
  ["CCCCCC(O)c1ccc(C2C(O)CC(Cl)C2CC=CCCCC(=O)OCCO)cc1 (centres unmarked) [Compound 46a]", "decreases from baseline"],
  ["CCCCCC(O)c1ccc(C2C(O)CC(Cl)C2CC=CCCCC(=O)OCCN2CCOCC2)cc1 (centres unmarked) [Compound 51b]", "decreases from baseline"],
  ["CCCCCC(O)c1ccc(C2C(O)CC(Cl)C2CCCc2ncc(C(=O)OCCO)s2)cc1 (centres unmarked) [Compound 34a]", "decreases from baseline"],
  ["CCCCCC(O)c1ccc(C2C(O)CC(F)C2CC=CCCCC(=O)OCCO)cc1 (centres unmarked) [Compound 40a]", "decreases from baseline"],
  ["CCCCCC(O)c1ccc(C2C(O)CC(Cl)C2CC=CCCCC(=O)OCCN2CCOCC2)cc1 (centres unmarked) [Compound 68b]", "decreases from baseline"],
  ["CCCCCC(O)c1ccc(C2C(O)CC(Cl)C2Cc2cccc(CCC(=O)OCCO)c2)cc1 (centres unmarked) [Compound 25a]", "decreases from baseline"],
  ["CCCCCC(O)c1ccc(C2C(O)CC(Cl)C2CC=CCCCC(=O)OCCN2CCOCC2)cc1 (centres unmarked) [Compound 46b]", "decreases from baseline"],
  ["CCCCCC(O)c1ccc(C2C(O)CC(Cl)C2Cc2cccc(CCC(=O)OCCN3CCOCC3)c2)cc1 (centres unmarked) [Compound 25b]", "decreases from baseline"],
  ["CCCCCC(O)c1ccc(C2C(O)CC(F)C2CC=CCCCC(=O)OCCN2CCOCC2)cc1 (centres unmarked) [Compound 40b]", "decreases from baseline"]
]}
